- Test system: Klebsiella pneumoniae
- Assay type: cell-based
- Description: To evaluate the potency and spectrum of the compounds, susceptibility testing was performed against up to nine strains of each of the Gram negative pathogens, Escherichia coli, Pseudomonas aeruginosa, Klebsiella pneumoniae and Acinetobacter baumannii. The values in Table 2 are MIC (μg/mL) against strains of E. coli, K. pneumoniae, P. aeruginosa and A. baumanii, including strains which show elevated MICs to Polymyxin. The values in Table 2A are MIC (μg/mL). […]
Numbered stars: 1 amine (or outer) side, 2 acyl side, 3 side chain; on linkers, the order of the positions; unused ones are H or OH. Bridge positions count the residues as written; N and C are the ends. Square brackets hold non-standard residues; d marks the D form. Peptide text beside a SMILES is read from it. * marks the point of attachment. ξ: configuration not given here. X5 = CCCCCCCCc1ccc(C[C@@H](N[*:1])C(=O)[*:2])cc1; dCha = N[C@H](CC1CCCCC1)C(=O)O; Thr(3ξ) = CC(O)[C@H](N)C(=O)O; X4 = CC(C)CC1CNCC(C(=O)*)C1; X21 = NCC(CC1CCCCC1)C(=O)*; Dab = NCC[C@H](N)C(=O)O; Dap = NC[C@H](N)C(=O)O; X2 = CC(C)CC(CN)C(=O)*
Listed here: items and their measured MIC K. pneumoniae 063.
# number only, unit µg/mL dropped from output

molecule	readout-unit	assay-value
CC(C)CCC(CCN)C(=O)N[C@H](C(=O)N[C@@H](CN)C(=O)N[C@H]1CCNC(=O)[C@H]([C@@H](C)O)NC(=O)[C@H](CCN)NC(=O)[C@H](CCN)NC(=O)[C@H](CC(C)C)NC(=O)[C@@H](CC2CCCCC2)NC(=O)[C@H](CCN)NC1=O)[C@@H](C)O (single isomer, unassigned; isomer 2) [Example 80]	µg/mL	8
CC(C)CC(CN)C(=O)N[C@H](C(=O)N[C@@H](CCN)C(=O)N[C@H]1CCNC(=O)[C@H]([C@@H](C)O)NC(=O)[C@H](CCN)NC(=O)[C@H](CCN)NC(=O)[C@H](CC(C)C)NC(=O)[C@@H](CC2CCCCC2)NC(=O)[C@H](CCN)NC1=O)C(C)O (stereo partly drawn) [Example 21] (X2-[Thr(3ξ)][Dab][Dab][Dab][dCha]L[Dab][Dab]T; lactam 3-C)	µg/mL	64
CC(C)C[C@@H]1NC(=O)[C@@H](CC2CCCCC2)NC(=O)[C@H](CCN)NC(=O)[C@@H](NC(=O)[C@H](CN)NC(=O)[C@@H](NC(=O)C(CN)CC2CCCCC2)C(C)O)CCNC(=O)[C@H]([C@@H](C)O)NC(=O)[C@H](CCN)NC(=O)[C@H](CCN)NC1=O (stereo partly drawn) [Example 31] (X21-[Thr(3ξ)][Dap][Dab][Dab][dCha]L[Dab][Dab]T; lactam 3-C)	µg/mL	16

// next item, MIC K. pneumoniae 063 requested
The measured MIC K. pneumoniae 063 associated with CCCCCCCCc1ccc(C[C@H]2NC(=O)[C@H](CCN)NC(=O)[C@@H](NC(=O)[C@H](CN)NC(=O)[C@@H](NC(=O)C3CNCC(CC(C)C)C3)C(C)O)CCNC(=O)[C@H]([C@@H](C)O)NC(=O)[C@H](CCN)NC(=O)[C@H](CCN)NC(=O)[C@H](CC(C)C)NC2=O)cc1 (stereo partly drawn) [Example 23] (X4-[Thr(3ξ)][Dap][Dab][Dab][X5]L[Dab][Dab]T; lactam 3-C) reads 8

====

Listed here: items and their measured MIC P. aeruginosa 068.
- System: Pseudomonas aeruginosa
- Format: cell-based
Bridge positions count the residues as written; N and C are the ends. Square brackets hold non-standard residues; d marks the D form. Peptide text beside a SMILES is read from it. * marks the point of attachment. ξ: configuration not given here. X23 = NCC[C@H](OCc1ccccc1)C(=O)*; dCha = N[C@H](CC1CCCCC1)C(=O)O; Thr(3ξ) = CC(O)[C@H](N)C(=O)O; Dab = NCC[C@H](N)C(=O)O; Dap = NC[C@H](N)C(=O)O; X2 = CC(C)CC(CN)C(=O)*
# number only, unit µg/mL dropped from output

Recorded MIC P. aeruginosa 068, per entry:
molecule	MIC P. aeruginosa 068 [µg/mL]
CC(C)CC1CNCC(C(=O)N[C@H](C(=O)N[C@@H](CN)C(=O)N[C@H]2CCNC(=O)[C@H]([C@@H](C)O)NC(=O)[C@H](CCN)NC(=O)[C@H](CCN)NC(=O)[C@H](CC(C)C)NC(=O)[C@@H](Cc3ccc(Br)cc3)NC(=O)[C@H](CCN)NC2=O)C(C)O)C1 (single isomer, unassigned; isomer 2) [Example 12]	1
CC(C)CC(CN)C(=O)N[C@H](C(=O)N[C@@H](CCN)C(=O)N[C@H]1CCNC(=O)[C@H]([C@@H](C)O)NC(=O)[C@H](CCN)NC(=O)[C@H](CCN)NC(=O)[C@H](CC(C)C)NC(=O)[C@@H](CC2CCCCC2)NC(=O)[C@H](CCN)NC1=O)C(C)O (stereo partly shown) [Example 21] (X2-[Thr(3ξ)][Dab][Dab][Dab][dCha]L[Dab][Dab]T; lactam 3-C)	32
CC(C)C[C@@H]1NC(=O)[C@@H](CC2CCCCC2)NC(=O)[C@H](CCN)NC(=O)[C@@H](NC(=O)[C@H](CN)NC(=O)[C@@H](NC(=O)[C@H](CCN)OCc2ccccc2)C(C)O)CCNC(=O)[C@H]([C@@H](C)O)NC(=O)[C@H](CCN)NC(=O)[C@H](CCN)NC1=O (stereo partly shown) [Example 48] (X23-[Thr(3ξ)][Dap][Dab][Dab][dCha]L[Dab][Dab]T; lactam 3-C)	8

// next item, MIC P. aeruginosa 068 requested
The measured MIC P. aeruginosa 068 associated with CCCCCC/C=C/c1ccc(C[C@H]2NC(=O)[C@H](CCN)NC(=O)[C@@H](NC(=O)[C@H](CN)NC(=O)[C@@H](NC(=O)C3CNCC(CC(C)C)C3)C(C)O)CCNC(=O)[C@H]([C@@H](C)O)NC(=O)[C@H](CCN)NC(=O)[C@H](CCN)NC(=O)[C@H](CC(C)C)NC2=O)cc1 (single isomer, unassigned; isomer 1) [Example 17] reads 4
